experiment-summary: Blood levels in mice after intramuscular administration;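 further: compounds dissolved in 0.1 M phosphate buffer at pH 7, data from one experiment using four mice for each compound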
assay-context: mouse, blood, im, 20 mg/kg
Please provide measured half-life for the entries that follow.
Answers are plain numbers, in min.

// below: answered molecules
                                   molecule  measure_name  value_observed
0  C[C@@H](O)[C@H]1C(=O)N2C(C(=O)[O-])=C(SCc3cccc[n+]3C)C[C@H]12 [Example 4]     half-life              11
1  Cc1ccc[n+](C)c1CSC1=C(C(=O)[O-])N2C(=O)[C@H]([C@@H](C)O)[C@H]2C1 [Example 7]     half-life              11
2  C[C@@H](O)[C@H]1C(=O)N2C(C(=O)[O-])=C(SCc3n[n+](C)nn3C)C[C@H]12 [Example 20]     half-life              14
3  C[C@@H](O)[C@H]1C(=O)N2C(C(=O)[O-])=C(SCc3ccc[n+](C)c3)C[C@H]12 [Example 3]     half-life              10
4  Cc1c(CSC2=C(C(=O)[O-])N3C(=O)[C@H]([C@@H](C)O)[C@H]3C2)ccc[n+]1C [Example 14]     half-life              13
5  C[C@@H](O)[C@H]1C(=O)N2C(C(=O)[O-])=C(SCc3cn(C)n[n+]3C)C[C@H]12 [Example 15 "A"]     half-life              12

Provide the reported half-life of each entry below, same order.
1. C[C@@H](O)[C@H]1C(=O)N2C(C(=O)[O-])=C(SCc3n(Cc4ccccc4)cc[n+]3C)C[C@H]12 [Example 13]
2. C[C@@H](O)[C@H]1C(=O)N2C(C(=O)[O-])=C(SCc3n(C)nc[n+]3C)C[C@H]12 [Example 19]
3. C[C@@H](O)[C@H]1C(=O)N2C(C(=O)[O-])=C(SCc3cn(C)n[n+]3CC(=O)O)C[C@H]12 [Example 17]

Out:
[11, 16.7, 8]
